# self-splicing fitness (ln) per record follows
- assay method text: self-splicing fitness, log relative to wild type (ln ratio); higher = more splicing; Tetrahymena group I intron in knt gene, E. coli kanamycin selection, DiMSum; sequences stand for … in CUCUCU…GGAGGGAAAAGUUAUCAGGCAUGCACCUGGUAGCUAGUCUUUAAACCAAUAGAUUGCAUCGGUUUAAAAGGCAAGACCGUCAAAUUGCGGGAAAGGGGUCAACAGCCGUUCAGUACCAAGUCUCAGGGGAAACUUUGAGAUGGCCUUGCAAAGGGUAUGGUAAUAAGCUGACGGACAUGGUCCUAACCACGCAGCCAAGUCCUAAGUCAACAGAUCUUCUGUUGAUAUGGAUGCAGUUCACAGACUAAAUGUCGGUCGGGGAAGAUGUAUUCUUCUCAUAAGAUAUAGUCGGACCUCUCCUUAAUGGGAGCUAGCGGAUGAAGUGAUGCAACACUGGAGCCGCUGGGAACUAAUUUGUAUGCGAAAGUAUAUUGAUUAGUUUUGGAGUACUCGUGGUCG;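 also: selection with 25 µg/mL kanamycin versus none on LB agar overnight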
- condition details: 37 °C
Enter the number alone.

>>> df
        sequence_string  reported_value
0  AGGAAGCAAUAUUACGCAAU              -2
1  CUUAAGCAAUAUUACGCCCU           -1.96
2  CGUUAGCAAUAUUACGCGGG           -3.13
3  GUCUAGCAAUAUUACGAUAG           -2.96
4  CUUAAGCAAUAUUACGCUAC           -2.34
5  CCUUAGCAAUAUUACGUGAC           -2.68
6  AUAGAGCAAUAUUACGGUGA           -1.41
7  CACAAGCAAUAUUACGAACU           -2.37
8  UACUAGCAAUAUUACGUGCU           -3.06
9  AUUUAGCAAUAUUACGUCUC           -2.18

// fetch self-splicing fitness (ln) given entry `GGCCAGCAAUAUUACGUGCA`
-0.196

// fetch self-splicing fitness (ln) given entry `AUCGAGCAAUAUUACGCAGA`
-2.46

// fetch self-splicing fitness (ln) given entry `AGGCAGCAAUAUUACGUCUG`
-1.51

// fetch self-splicing fitness (ln) given entry `AACCAGCAAUAUUACGCAUA`
0.309

// fetch self-splicing fitness (ln) given entry `UGGUAGCAAUAUUACGACAG`
-0.713

// fetch self-splicing fitness (ln) given entry `AAGGAGCAAUAUUACGGGUA`
-2.3

// fetch self-splicing fitness (ln) given entry `ACAAAGCAAUAUUACGGCCG`
0.0921

// fetch self-splicing fitness (ln) given entry `UAAAAGCAAUAUUACGUCGU`
-2.17

// fetch self-splicing fitness (ln) given entry `AAUAAGCAAUAUUACGCAAC`
-0.975

// fetch self-splicing fitness (ln) given entry `GACUAGCAAUAUUACGUUUC`
-2.84

----------
- assay method text: self-splicing fitness, log relative to wild type (ln ratio); higher = more splicing; Tetrahymena group I intron in knt gene, E. coli kanamycin selection, DiMSum; sequences stand for … in CUCUCU…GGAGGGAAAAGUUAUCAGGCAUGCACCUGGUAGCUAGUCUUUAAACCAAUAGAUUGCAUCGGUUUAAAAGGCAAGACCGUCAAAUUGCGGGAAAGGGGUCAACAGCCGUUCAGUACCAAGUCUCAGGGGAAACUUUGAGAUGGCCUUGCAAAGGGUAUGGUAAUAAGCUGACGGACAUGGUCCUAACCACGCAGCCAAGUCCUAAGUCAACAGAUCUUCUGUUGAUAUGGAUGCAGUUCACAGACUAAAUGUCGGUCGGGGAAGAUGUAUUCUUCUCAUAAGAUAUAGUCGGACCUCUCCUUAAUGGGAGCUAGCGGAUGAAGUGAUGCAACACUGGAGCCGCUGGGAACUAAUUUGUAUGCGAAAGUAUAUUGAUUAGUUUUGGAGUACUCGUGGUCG
- condition details: 30 °C
observable: self-splicing fitness (ln)
Enter the number alone.

// worked examples, self-splicing fitness (ln) included
In [3]: df
Out[3]:
        sequence_string  reported_value
0  UGGGAGCAAUAUUACGAUAA          -0.547
1  CCCAAGCAAUAUUACGAGCU           -4.17
2  UGACAGCAAUAUUACGACUU          -0.452

// fetch self-splicing fitness (ln) given entry `CUCGAGCAAUAUUACGACUU`
-3.19

// fetch self-splicing fitness (ln) given entry `CGAGAGCAAUAUUACGGGUA`
-2.27

// fetch self-splicing fitness (ln) given entry `UGAAAGCAAUAUUACGUACA`
-0.776

// fetch self-splicing fitness (ln) given entry `CAGUAGCAAUAUUACGCACA`
-1.88

// fetch self-splicing fitness (ln) given entry `UUGAAGCAAUAUUACGCUCC`
-4.04

// fetch self-splicing fitness (ln) given entry `GCACAGCAAUAUUACGAAAG`
-3.79

----------
- assay method text: self-splicing fitness, log relative to wild type (ln ratio); higher = more splicing; Tetrahymena group I intron in knt gene, E. coli kanamycin selection, DiMSum; sequences stand for … in CUCUCU…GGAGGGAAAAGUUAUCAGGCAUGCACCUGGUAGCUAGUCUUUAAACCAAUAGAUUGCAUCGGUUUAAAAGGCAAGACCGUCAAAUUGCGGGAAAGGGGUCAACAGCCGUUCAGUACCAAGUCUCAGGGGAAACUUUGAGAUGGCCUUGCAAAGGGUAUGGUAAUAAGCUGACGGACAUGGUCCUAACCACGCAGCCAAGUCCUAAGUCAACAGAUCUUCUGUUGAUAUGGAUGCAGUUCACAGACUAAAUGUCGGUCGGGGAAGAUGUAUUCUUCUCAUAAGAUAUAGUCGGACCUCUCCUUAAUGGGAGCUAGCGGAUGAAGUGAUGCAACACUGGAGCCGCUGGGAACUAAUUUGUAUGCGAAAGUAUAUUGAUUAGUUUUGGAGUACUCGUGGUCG
- condition details: 37 °C
# self-splicing fitness (ln) per record follows
Enter the number alone.

>>> print(df.to_string())
        sequence_string  reported_value
0  AUUAAGCAAUAUUACGCCCG            0.13
1  GGGAAGCAAUAUUACGAUCU          -0.134
2  ACCUAGCAAUAUUACGACUG           -1.46
3  CUCCAGCAAUAUUACGGGUU           -2.91
4  GAAAAGCAAUAUUACGUGGA           -1.89

// fetch self-splicing fitness (ln) given entry `UCUCAGCAAUAUUACGCGUA`
-0.966

----------
- assay method text: self-splicing fitness, log relative to wild type (ln ratio); higher = more splicing; Tetrahymena group I intron in knt gene, E. coli kanamycin selection, DiMSum; sequences stand for … in CUCUCU…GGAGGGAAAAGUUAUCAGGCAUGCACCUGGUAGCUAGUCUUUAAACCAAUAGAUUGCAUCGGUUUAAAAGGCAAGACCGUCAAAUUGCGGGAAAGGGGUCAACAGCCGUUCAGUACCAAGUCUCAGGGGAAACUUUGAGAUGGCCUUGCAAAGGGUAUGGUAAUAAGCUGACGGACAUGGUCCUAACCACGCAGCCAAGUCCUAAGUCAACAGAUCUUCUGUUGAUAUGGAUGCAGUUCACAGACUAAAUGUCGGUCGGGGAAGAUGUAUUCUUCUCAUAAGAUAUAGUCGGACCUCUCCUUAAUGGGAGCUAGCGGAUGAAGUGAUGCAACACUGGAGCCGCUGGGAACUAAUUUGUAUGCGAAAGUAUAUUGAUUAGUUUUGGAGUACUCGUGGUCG
- condition details: 30 °C
# self-splicing fitness (ln) per record follows
Enter the number alone.

        sequence_string  reported_value
0  UGAGAGCAAUAUUACGAACU           -3.05
1  CGCAAGCAAUAUUACGAGAU           -3.04
2  GCAAAGCAAUAUUACGUCCG           -1.98
3  ACUCAGCAAUAUUACGCGGG           -2.91
4  AAAUAGCAAUAUUACGGGCU           -2.04

// fetch self-splicing fitness (ln) given entry `UACAAGCAAUAUUACGCUGC`
-2.03

----------
- assay method text: self-splicing fitness, log relative to wild type (ln ratio); higher = more splicing; Tetrahymena group I intron in knt gene, E. coli kanamycin selection, DiMSum; sequences stand for … in CUCUCU…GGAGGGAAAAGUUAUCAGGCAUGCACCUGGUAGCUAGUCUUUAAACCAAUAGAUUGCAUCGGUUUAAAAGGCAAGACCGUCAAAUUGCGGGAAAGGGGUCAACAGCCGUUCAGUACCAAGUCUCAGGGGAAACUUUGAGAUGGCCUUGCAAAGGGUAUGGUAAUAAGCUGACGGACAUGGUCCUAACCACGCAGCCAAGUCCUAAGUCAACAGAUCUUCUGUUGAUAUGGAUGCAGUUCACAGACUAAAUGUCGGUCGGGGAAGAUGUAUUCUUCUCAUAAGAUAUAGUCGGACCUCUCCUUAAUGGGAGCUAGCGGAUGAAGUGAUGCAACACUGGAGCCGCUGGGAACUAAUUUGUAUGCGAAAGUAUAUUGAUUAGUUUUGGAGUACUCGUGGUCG
- condition details: 37 °C
# self-splicing fitness (ln) per record follows
Enter the number alone.

// worked examples, self-splicing fitness (ln) included
In [3]: df
Out[3]:
        sequence_string  reported_value
0  GUCGAGCAAUAUUACGUCGU          -0.592
1  UGCUAGCAAUAUUACGAUGA            -1.2
2  UGCCAGCAAUAUUACGCUCC           -1.15

// fetch self-splicing fitness (ln) given entry `ACGAAGCAAUAUUACGCUGA`
-0.99
